Listed next: entries and their corresponding ratio of binding signal (RLU) to isotype control.
# test.system: T1, full length human MSR1 with a C-terminal Myc tag, on HEK293.Myc.hMSR1 cells (human, UniProt P21757 1-451)
# T1 construct: whole, on cells; stably expressed on engineered HEK293 cells; not shown: C-terminal Myc tag
# T1 sequence (looked up): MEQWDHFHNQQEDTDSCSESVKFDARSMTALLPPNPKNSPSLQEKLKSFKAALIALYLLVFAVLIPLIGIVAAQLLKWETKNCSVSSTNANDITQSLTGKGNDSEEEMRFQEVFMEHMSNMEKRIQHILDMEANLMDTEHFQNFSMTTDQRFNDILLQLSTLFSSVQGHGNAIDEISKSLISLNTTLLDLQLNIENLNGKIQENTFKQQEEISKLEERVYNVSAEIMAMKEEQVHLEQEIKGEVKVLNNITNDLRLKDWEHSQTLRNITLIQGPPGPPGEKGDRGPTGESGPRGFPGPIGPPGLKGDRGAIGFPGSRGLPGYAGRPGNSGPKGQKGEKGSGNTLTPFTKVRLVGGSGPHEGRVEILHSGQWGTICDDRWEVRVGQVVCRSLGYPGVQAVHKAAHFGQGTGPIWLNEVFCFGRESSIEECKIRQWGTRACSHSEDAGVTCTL
# method: ECL cell binding, HEK293.Myc.hMSR1 cells, 11 nM
Unit fold implied. Number only.

Ask: ratio of binding signal (RLU) to isotype control lookup needed for H1H21234N-N297Q (antibody, human IgG1, V domains shown, human IgG1 Fc with N297Q point mutation (EU numbering)) VH: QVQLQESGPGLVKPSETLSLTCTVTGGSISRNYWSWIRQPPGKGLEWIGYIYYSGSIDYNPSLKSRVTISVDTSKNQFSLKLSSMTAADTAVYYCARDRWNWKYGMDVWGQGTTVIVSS VL: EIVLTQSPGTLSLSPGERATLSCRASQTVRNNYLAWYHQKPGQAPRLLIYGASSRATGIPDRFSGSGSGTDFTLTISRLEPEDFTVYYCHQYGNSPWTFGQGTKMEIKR , thanks.
Result: 43

Ask: Repeat for the following binder: H1H27734P-N297Q (antibody, human IgG1, V domains shown, human IgG1 Fc with N297Q) VH: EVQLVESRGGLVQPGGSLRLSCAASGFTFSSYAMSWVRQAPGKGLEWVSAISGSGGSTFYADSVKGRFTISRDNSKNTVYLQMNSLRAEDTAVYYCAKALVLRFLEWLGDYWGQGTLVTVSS VL: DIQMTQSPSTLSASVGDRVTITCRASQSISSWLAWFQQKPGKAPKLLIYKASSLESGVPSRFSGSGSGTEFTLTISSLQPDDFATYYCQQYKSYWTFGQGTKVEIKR
Result: 40

***
Ask: // ratio of binding signal (RLU) to isotype control lookup, key: H2aM21229N (antibody, mouse IgG2a, V domains shown, mouse IgG2a Fc) VH: EVQLVESGGGLVKPGGSLRLSCAASGFTFSRYSMNWVRQAPGKGLEWVSSISSSSSYIYYGDTVKGRFTISRDNAKKSLYLQMNSLRAEDTAVYYCVRDRGQLVLYFDYWGQGTLVTVSS VL: DIQMTQSPASLSTSIRDRVTITCRASLSISSFLNWFQQRPGKAPKLLIYVASNLQSGVPSRFSDSGSGTDFTLTISSLQPEDFATYYCQQNYSTPPITFGQGTRLEIK
Result: 78
